Molecular target: Diamine oxidase [copper-containing] (Homo sapiens, UniProt P19801)
Sequence (P19801 20-751 limits assumed): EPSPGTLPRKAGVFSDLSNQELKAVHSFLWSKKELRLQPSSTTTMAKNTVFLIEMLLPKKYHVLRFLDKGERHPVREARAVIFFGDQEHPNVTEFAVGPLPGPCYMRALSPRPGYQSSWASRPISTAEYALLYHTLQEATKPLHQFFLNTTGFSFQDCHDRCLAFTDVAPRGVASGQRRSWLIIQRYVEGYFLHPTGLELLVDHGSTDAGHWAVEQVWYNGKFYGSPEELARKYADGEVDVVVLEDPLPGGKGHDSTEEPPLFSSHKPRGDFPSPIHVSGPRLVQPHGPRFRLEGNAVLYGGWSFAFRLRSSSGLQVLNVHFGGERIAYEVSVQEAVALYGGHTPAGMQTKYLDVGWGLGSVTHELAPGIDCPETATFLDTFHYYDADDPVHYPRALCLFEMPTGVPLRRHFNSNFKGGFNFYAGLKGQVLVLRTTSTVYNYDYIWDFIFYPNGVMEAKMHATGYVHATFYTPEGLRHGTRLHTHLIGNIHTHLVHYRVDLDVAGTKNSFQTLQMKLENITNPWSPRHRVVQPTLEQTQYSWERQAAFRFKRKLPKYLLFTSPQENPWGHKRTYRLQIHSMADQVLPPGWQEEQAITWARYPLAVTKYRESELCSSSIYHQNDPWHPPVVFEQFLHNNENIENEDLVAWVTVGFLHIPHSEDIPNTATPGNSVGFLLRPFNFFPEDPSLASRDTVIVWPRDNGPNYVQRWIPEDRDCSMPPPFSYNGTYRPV
pIC50: −log10 of the molar value.
Reported Endpoint: pIC50

{"columns": ["Smiles Repr", "Test Value"],
 "data": [
  ["NC/C(=C\\F)COc1ccc2c(c1)CCN(CC(N)=O)C2=O", "< 6.00"]
]}
